# Tested on: 439559-082-T-J2-PDC spheroids viability
# test: Anticancer human tumor 439559-082-T-J2-PDC patient-derived colon adenocarcinoma cell line growth inhibition [GQUAD]
# test-parameters: curve of first compound; second compound 0.0316 µM
quantity-name: IC50

Answered examples (3):
molecule	quantity-name	measured
C#Cc1c(F)ccc2cc(O)cc(-c3ncc4c(N5CC6CCC(C5)N6)nc(OCC56CCCN5CC(F)C6)nc4c3F)c12 (configuration not stated) + CN(C)c1ccc(Nc2c3ccc(NC(=O)CCN4CCCC4)cc3nc3cc(NC(=O)CCN4CCCC4)ccc23)cc1	IC50	> 10 µM
O=c1[nH]cc(F)c(=O)[nH]1 + CN(C)c1ccc(Nc2c3ccc(NC(=O)CCN4CCCC4)cc3nc3cc(NC(=O)CCN4CCCC4)ccc23)cc1	IC50	> 10 µM
Nc1ccn(C2OC(CO)C(O)C2(F)F)c(=O)n1 (configuration not stated) + Cc1cnc(CNC(=O)c2c(=O)c3ccc(N4CCCN(C)CC4)nc3n3c2sc2ccccc23)cn1	IC50	0.234 µM

input: Name the recorded IC50 for C=CCn1c(=O)c2cnc(Nc3ccc(N4CCN(C)CC4)cc3)nc2n1-c1cccc(C(C)(C)O)n1 + Cc1cnc(CNC(=O)c2c(=O)c3ccc(N4CCCN(C)CC4)nc3n3c2sc2ccccc23)cn1 .
output: 2.61 µM

input: Name the recorded IC50 for C#Cc1c(F)ccc2cc(O)cc(-c3ncc4c(N5CC6CCC(C5)N6)nc(OCC56CCCN5CC(F)C6)nc4c3F)c12 (configuration not stated) + Cc1cnc(CNC(=O)c2c(=O)c3ccc(N4CCCN(C)CC4)nc3n3c2sc2ccccc23)cn1 .
output: 9.53 µM

input: Name the recorded IC50 for CCc1c2c(nc3ccc(O)cc13)-c1cc3c(c(=O)n1C2)COC(=O)[C@]3(O)CC + CN(C)c1ccc(Nc2c3ccc(NC(=O)CCN4CCCC4)cc3nc3cc(NC(=O)CCN4CCCC4)ccc23)cc1 .
output: 0.163 µM

input: Name the recorded IC50 for Cc1cccc(N(C)C(=O)C2C(O)CCN2c2nc(C)cc(C(F)(F)F)c2C#N)c1 (configuration not stated) + CN(C)c1ccc(Nc2c3ccc(NC(=O)CCN4CCCC4)cc3nc3cc(NC(=O)CCN4CCCC4)ccc23)cc1 .
output: > 10 µM

input: Name the recorded IC50 for CC1COCCN1c1cc(C2(S(C)(=N)=O)CC2)nc(-c2ccnc3[nH]ccc23)n1 (configuration not stated) + Cc1cnc(CNC(=O)c2c(=O)c3ccc(N4CCCN(C)CC4)nc3n3c2sc2ccccc23)cn1 .
output: > 10 µM

----------
# System: 439559-082-T-J2-PDC spheroids viability
# test: Anticancer human tumor 439559-082-T-J2-PDC cell line growth inhibition [GQUAD];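 also: spheroids exposed to the agents for 7 days before readout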
# test-parameters: second compound 0.0316 µM; first compound 3.16 µM; stronger effect = lower value
# Description: DNA G-quadruplex Stabilizer Agents in Combinations in Complex Spheroids A high-throughput screen of multi-cell type tumor spheroids was designed to identify active combinations of DNA G-quadruplex stabilizer agents and targeted small molecules. […] Compounds. […] If the clinical Cmax for an agent had not been determined, the highest concentration tested was 10 microM. […]
List of viability, T/C values.
Answer with a number only, understood to be in %.

Answered examples (2):
compound	target-of-assay	viability, T/C [%]
O=c1[nH]cc(F)c(=O)[nH]1 + Cc1[nH]c2ccc(F)cc2c1-c1nc2c3cccnc3c3ncccc3c2[nH]1	439559-082-T-J2-PDC spheroids viability	76.8
CC1COCCN1c1cc(C2(S(C)(=N)=O)CC2)nc(-c2ccnc3[nH]ccc23)n1 (stereo not drawn) + Cc1[nH]c2ccc(F)cc2c1-c1nc2c3cccnc3c3ncccc3c2[nH]1	439559-082-T-J2-PDC spheroids viability	96.7

Now for a further compound.
input: Name the recorded viability, T/C for CCCS(=O)(=O)Nc1ccc(F)c(C(=O)c2c[nH]c3ncc(-c4ccc(Cl)cc4)cc23)c1F + Cc1cnc(CNC(=O)c2c(=O)c3ccc(N4CCCN(C)CC4)nc3n3c2sc2ccccc23)cn1 .
output: 101

----------
# Tested on: 439559-082-T-J2-PDC spheroids viability
# test: Anticancer human tumor 439559-082-T-J2-PDC cell line growth inhibition [GQUAD];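 also: spheroids exposed to the agents for 7 days before readout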;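 as to viability, T/C: percent of luminescence signal in DMSO vehicle wells taken as 100% viability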
# test-parameters: second compound 10 µM; first compound 10 µM; stronger effect = lower value
List of viability, T/C values.

molecule	target-of-assay	quantity-name	measured
O=C(c1cc(Cc2n[nH]c(=O)c3ccccc23)ccc1F)N1CCN(C(=O)C2CC2)CC1 + Cc1[nH]c2ccc(F)cc2c1-c1nc2c3cccnc3c3ncccc3c2[nH]1	439559-082-T-J2-PDC spheroids viability	viability, T/C	89.5%

input: Name the recorded viability, T/C for CC(=O)O[C@H]1C(=O)[C@@]2(C)[C@H]([C@H](OC(=O)c3ccccc3)[C@]3(O)C[C@H](OC(=O)[C@H](O)[C@@H](NC(=O)c4ccccc4)c4ccccc4)C(C)=C1C3(C)C)[C@]1(OC(C)=O)CO[C@@H]1C[C@@H]2O + CN(C)c1ccc(Nc2c3ccc(NC(=O)CCN4CCCC4)cc3nc3cc(NC(=O)CCN4CCCC4)ccc23)cc1 .
output: 27%

----------
List of viability, T/C values.
# Test system: 439559-082-T-J2-PDC spheroids viability
# test: Anticancer human tumor 439559-082-T-J2-PDC cell line growth inhibition [GQUAD];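 also: spheroids exposed to the agents for 7 days before readout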;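 as to viability, T/C: percent of luminescence signal in DMSO vehicle wells taken as 100% viability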
# test-parameters: second compound 0.1 µM; first compound 0.0999 µM; stronger effect = lower value
Answer with a number only, understood to be in %.

compound	target-of-assay	value-units	viability, T/C
Cn1ncnc1[C@H]1c2n[nH]c(=O)c3cc(F)cc(c23)N[C@@H]1c1ccc(F)cc1 + CN(C)c1ccc(Nc2c3ccc(NC(=O)CCN4CCCC4)cc3nc3cc(NC(=O)CCN4CCCC4)ccc23)cc1	439559-082-T-J2-PDC spheroids viability	%	94.4
CCc1c2c(nc3ccc(O)cc13)-c1cc3c(c(=O)n1C2)COC(=O)[C@]3(O)CC + CN(C)c1ccc(Nc2c3ccc(NC(=O)CCN4CCCC4)cc3nc3cc(NC(=O)CCN4CCCC4)ccc23)cc1	439559-082-T-J2-PDC spheroids viability	%	56.6
Cn1ncnc1[C@H]1c2n[nH]c(=O)c3cc(F)cc(c23)N[C@@H]1c1ccc(F)cc1 + Cc1cnc(CNC(=O)c2c(=O)c3ccc(N4CCCN(C)CC4)nc3n3c2sc2ccccc23)cn1	439559-082-T-J2-PDC spheroids viability	%	87.3
Cc1[nH]c2ccccc2c1CCNCc1ccc(/C=C/C(=O)NO)cc1 + Cc1[nH]c2ccc(F)cc2c1-c1nc2c3cccnc3c3ncccc3c2[nH]1	439559-082-T-J2-PDC spheroids viability	%	101

input: Name the recorded viability, T/C for CC[C@@]1(O)C(=O)OCc2c1cc1n(c2=O)Cc2cc3c(CN(C)C)c(O)ccc3nc2-1 + Cc1cnc(CNC(=O)c2c(=O)c3ccc(N4CCCN(C)CC4)nc3n3c2sc2ccccc23)cn1 .
output: 83

----------
# Test system: 439559-082-T-J2-PDC spheroids viability
# test: Anticancer human tumor 439559-082-T-J2-PDC cell line growth inhibition [GQUAD];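 also: spheroids exposed to the agents for 7 days before readout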;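 as to viability, T/C: percent of luminescence signal in DMSO vehicle wells taken as 100% viability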
# test-parameters: second compound 0.0316 µM; first compound 1 µM; stronger effect = lower value
quantity-name: viability, T/C (%)
Answer with a number only, understood to be in %.

molecule	target-of-assay	measured
C=CC(=O)N1CCN(c2nc(=O)n(-c3c(C)ccnc3C(C)C)c3nc(-c4c(O)cccc4F)c(F)cc23)C(C)C1 (stereo not given) + CN(C)c1ccc(Nc2c3ccc(NC(=O)CCN4CCCC4)cc3nc3cc(NC(=O)CCN4CCCC4)ccc23)cc1	439559-082-T-J2-PDC spheroids viability	104
O=C(NO)c1cnc(N2CCN(S(=O)(=O)c3ccc4ccccc4c3)CC2)nc1 + Cc1cnc(CNC(=O)c2c(=O)c3ccc(N4CCCN(C)CC4)nc3n3c2sc2ccccc23)cn1	439559-082-T-J2-PDC spheroids viability	29.1
CC(C)(O)C1CCC(Nc2ccc3ncc(-c4cccc(C(F)(F)F)c4)n3n2)CC1 (stereo not given) + CN(C)c1ccc(Nc2c3ccc(NC(=O)CCN4CCCC4)cc3nc3cc(NC(=O)CCN4CCCC4)ccc23)cc1	439559-082-T-J2-PDC spheroids viability	78.1
CC(C)(O)C1CCC(Nc2ccc3ncc(-c4cccc(C(F)(F)F)c4)n3n2)CC1 (stereo not given) + Cc1[nH]c2ccc(F)cc2c1-c1nc2c3cccnc3c3ncccc3c2[nH]1	439559-082-T-J2-PDC spheroids viability	66

Now for a further molecule.
input: Name the recorded viability, T/C for CCCS(=O)(=O)Nc1ccc(F)c(C(=O)c2c[nH]c3ncc(-c4ccc(Cl)cc4)cc23)c1F + Cc1[nH]c2ccc(F)cc2c1-c1nc2c3cccnc3c3ncccc3c2[nH]1 .
output: 78.5

----------
List of viability, T/C values.
# Test system: 439559-082-T-J2-PDC spheroids viability
# test: Anticancer human tumor 439559-082-T-J2-PDC cell line growth inhibition [GQUAD];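 also: spheroids exposed to the agents for 7 days before readout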;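 as to viability, T/C: percent of luminescence signal in DMSO vehicle wells taken as 100% viability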
# test-parameters: second compound 0.316 µM; first compound 0.316 µM; stronger effect = lower value
Answer with a number only, understood to be in %.

compound	viability, T/C (%)
O=c1[nH]cc(F)c(=O)[nH]1 + Cc1[nH]c2ccc(F)cc2c1-c1nc2c3cccnc3c3ncccc3c2[nH]1	83.7
COc1ccc([C@@H](O)c2cc(-c3ncnc4cc(N5CCOCC5)ccc34)c(F)cc2Cl)nn1 + Cc1cnc(CNC(=O)c2c(=O)c3ccc(N4CCCN(C)CC4)nc3n3c2sc2ccccc23)cn1	75.4
CCCS(=O)(=O)Nc1ccc(F)c(C(=O)c2c[nH]c3ncc(-c4ccc(Cl)cc4)cc23)c1F + CN(C)c1ccc(Nc2c3ccc(NC(=O)CCN4CCCC4)cc3nc3cc(NC(=O)CCN4CCCC4)ccc23)cc1	94.1
CCc1c2c(nc3ccc(O)cc13)-c1cc3c(c(=O)n1C2)COC(=O)[C@]3(O)CC + Cc1cnc(CNC(=O)c2c(=O)c3ccc(N4CCCN(C)CC4)nc3n3c2sc2ccccc23)cn1	31.8

Now for a further compound.
input: Name the recorded viability, T/C for O=C(c1cc(Cc2n[nH]c(=O)c3ccccc23)ccc1F)N1CCN(C(=O)C2CC2)CC1 + CN(C)c1ccc(Nc2c3ccc(NC(=O)CCN4CCCC4)cc3nc3cc(NC(=O)CCN4CCCC4)ccc23)cc1 .
output: 98.5

// data source = PubChem BioAssay AID2060510
